biological target: human Cav2.2 (Homo sapiens); assay: Assessment of calcium channel activity using FLIPR (Ca2+ influx in IMR32 cells); type: cell-based
RECORDED ENDPOINT: IC50 (nM)

Consider the following illustrative entries.
1) CCCCc1nc(CN[C@H]2CC[C@@H]3CN(c4cccc(C(F)(F)F)n4)C[C@@H]32)c[nH]1
530
2) Cc1ccc(CN[C@H]2CC[C@@H]3CN(c4cccc(C(F)(F)F)n4)C[C@@H]32)cc1
410
3) CC(C)CC(C(=O)NC1CCC2CN(Cc3ccc(F)c(C(F)(F)F)c3)CC21)N(C)C(=O)OC(C)(C)C (stereo not shown)
1590

(I) CN[C@H](C(=O)N[C@H]1CC[C@@H]2CN(c3cccc(OC(F)(F)F)c3)C[C@@H]21)C(C)C
(II) O=S(=O)(c1cccc(C(F)(F)F)c1)N1C[C@H]2CC[C@H](NCc3cc4cc(F)ccc4[nH]3)[C@H]2C1
Request: Parameter metric = IC50. Return the lower-valued option from I and II . Bench note: the answer is the label of the chosen record.
Response: II
(II: 590 nM, I: 1420 nM)

* * *

target: human Cav2.2 (Homo sapiens, UniProt Q00975); experiment: Assessment of calcium channel activity using FLIPR (Ca2+ influx in IMR32 cells); format: cell-based
Sequence (Q00975 whole entry): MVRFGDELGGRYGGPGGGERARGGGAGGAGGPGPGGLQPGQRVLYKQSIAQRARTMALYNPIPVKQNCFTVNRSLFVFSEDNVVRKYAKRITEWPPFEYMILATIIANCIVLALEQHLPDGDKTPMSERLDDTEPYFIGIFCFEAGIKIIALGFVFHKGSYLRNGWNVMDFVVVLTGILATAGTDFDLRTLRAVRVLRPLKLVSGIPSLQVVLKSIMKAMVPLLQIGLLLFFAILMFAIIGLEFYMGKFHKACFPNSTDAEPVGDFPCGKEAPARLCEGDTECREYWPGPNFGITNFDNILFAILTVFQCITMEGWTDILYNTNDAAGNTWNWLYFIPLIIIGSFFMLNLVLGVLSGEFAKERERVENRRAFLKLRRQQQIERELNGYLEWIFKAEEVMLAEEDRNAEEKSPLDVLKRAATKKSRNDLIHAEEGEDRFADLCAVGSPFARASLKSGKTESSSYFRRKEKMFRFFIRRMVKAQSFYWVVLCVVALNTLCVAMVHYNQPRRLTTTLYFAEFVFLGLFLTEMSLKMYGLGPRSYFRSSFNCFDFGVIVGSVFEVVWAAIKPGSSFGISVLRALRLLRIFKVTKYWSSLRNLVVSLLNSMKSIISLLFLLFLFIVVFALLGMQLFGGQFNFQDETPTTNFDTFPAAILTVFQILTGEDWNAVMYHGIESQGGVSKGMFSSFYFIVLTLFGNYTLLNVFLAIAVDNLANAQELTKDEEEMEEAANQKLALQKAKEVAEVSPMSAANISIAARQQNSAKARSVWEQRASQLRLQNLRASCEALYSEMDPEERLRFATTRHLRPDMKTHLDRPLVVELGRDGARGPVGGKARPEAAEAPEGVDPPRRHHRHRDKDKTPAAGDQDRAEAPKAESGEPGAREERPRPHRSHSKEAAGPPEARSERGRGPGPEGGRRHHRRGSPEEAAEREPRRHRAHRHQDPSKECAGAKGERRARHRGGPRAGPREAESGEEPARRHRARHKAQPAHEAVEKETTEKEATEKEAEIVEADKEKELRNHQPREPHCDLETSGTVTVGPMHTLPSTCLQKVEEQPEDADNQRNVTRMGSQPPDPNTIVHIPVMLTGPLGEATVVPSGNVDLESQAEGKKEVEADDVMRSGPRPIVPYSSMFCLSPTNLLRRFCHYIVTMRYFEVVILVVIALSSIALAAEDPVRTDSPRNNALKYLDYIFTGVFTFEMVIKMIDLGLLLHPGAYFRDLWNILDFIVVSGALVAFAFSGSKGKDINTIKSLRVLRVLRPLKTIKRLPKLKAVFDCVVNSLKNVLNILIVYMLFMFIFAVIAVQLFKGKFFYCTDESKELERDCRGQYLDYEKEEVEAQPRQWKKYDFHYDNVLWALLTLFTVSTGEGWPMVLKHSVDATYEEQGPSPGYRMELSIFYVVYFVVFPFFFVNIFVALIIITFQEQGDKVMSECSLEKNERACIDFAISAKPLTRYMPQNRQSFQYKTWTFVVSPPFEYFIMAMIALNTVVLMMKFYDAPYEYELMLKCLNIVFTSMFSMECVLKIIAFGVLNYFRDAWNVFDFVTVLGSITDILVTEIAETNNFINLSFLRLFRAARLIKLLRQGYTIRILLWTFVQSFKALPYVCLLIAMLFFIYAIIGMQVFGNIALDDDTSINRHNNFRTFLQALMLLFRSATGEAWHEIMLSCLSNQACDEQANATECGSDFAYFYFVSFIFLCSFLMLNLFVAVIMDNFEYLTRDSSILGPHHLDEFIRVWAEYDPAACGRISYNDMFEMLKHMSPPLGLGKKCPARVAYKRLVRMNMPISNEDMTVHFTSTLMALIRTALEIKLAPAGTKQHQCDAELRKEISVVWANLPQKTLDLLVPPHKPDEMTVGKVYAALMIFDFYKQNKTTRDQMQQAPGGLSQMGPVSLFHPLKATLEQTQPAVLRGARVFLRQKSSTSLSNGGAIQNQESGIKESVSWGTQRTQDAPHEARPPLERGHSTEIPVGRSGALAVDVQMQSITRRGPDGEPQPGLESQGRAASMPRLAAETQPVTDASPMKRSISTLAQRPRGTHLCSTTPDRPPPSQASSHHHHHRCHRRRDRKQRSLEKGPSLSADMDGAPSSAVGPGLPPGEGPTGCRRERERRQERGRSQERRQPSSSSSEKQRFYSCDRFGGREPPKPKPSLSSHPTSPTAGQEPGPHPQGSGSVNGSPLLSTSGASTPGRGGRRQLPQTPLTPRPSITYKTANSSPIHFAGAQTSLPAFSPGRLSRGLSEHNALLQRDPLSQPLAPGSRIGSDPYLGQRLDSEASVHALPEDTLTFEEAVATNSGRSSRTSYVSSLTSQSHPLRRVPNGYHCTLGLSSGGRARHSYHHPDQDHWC
Sequence (P54289 25-956 partner limits assumed): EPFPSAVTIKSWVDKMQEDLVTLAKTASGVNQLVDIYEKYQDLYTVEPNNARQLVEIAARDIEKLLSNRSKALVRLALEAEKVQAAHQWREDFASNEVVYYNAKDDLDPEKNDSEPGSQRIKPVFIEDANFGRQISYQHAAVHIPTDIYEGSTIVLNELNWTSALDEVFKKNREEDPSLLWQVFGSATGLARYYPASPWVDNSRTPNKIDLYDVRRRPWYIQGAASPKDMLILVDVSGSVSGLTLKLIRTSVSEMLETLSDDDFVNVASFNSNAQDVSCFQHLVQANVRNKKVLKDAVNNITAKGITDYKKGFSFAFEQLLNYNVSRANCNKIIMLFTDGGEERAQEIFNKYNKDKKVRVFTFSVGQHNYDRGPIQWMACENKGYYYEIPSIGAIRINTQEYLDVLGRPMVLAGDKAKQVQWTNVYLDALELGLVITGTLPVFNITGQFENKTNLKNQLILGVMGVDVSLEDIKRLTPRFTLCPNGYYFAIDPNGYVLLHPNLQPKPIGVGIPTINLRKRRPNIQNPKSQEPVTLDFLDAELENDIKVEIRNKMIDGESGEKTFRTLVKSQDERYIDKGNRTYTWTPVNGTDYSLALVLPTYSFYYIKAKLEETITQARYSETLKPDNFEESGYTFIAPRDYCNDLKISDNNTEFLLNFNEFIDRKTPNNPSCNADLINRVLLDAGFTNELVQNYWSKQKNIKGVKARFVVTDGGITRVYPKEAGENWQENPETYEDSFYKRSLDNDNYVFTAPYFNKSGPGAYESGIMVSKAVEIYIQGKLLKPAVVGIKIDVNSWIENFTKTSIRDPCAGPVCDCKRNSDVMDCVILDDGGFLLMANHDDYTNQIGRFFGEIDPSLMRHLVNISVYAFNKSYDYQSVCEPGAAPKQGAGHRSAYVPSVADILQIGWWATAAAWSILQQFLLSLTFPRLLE
Sequence (P54289 957-1103 partner limits assumed): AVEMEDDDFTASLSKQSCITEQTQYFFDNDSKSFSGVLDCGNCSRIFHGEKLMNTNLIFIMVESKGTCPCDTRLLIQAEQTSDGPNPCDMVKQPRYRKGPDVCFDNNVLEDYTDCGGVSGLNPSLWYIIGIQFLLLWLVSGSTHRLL
Sequence (P54284 whole entry partner): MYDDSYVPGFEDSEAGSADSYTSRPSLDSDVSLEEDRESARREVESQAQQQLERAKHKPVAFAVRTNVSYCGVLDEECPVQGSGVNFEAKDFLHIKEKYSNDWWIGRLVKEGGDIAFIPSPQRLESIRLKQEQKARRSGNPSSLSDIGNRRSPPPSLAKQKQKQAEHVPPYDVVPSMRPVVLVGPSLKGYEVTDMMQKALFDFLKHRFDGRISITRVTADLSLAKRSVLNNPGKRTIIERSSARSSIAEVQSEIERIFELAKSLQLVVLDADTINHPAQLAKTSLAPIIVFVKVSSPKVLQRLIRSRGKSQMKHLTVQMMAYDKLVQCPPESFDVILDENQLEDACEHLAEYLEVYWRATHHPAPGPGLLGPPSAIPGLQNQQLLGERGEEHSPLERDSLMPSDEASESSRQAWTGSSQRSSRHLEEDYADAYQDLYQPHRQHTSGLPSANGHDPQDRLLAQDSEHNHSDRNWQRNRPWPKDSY
RECORDED ENDPOINT: IC50 (µM)

1. CN[C@@H](CC(C)C)C(=O)N[C@H]1CC[C@@H]2CN(c3nccc(C(F)(F)F)n3)C[C@@H]21
2.53

(a) Fc1cnc2[nH]cc(CN[C@H]3CC[C@@H]4CN(c5cccc(C(F)(F)F)n5)C[C@@H]43)c2c1
(b) Fc1cc(F)cc(-c2n[nH]cc2CN[C@H]2CC[C@@H]3CN(c4cccc(C(F)(F)F)n4)C[C@@H]32)c1
(c) CC(C)(C)[C@H](O)C(=O)N[C@H]1CC[C@@H]2CN(c3cccc(C(F)(F)F)n3)C[C@@H]21
Request: Rank order required: IC50, descending. Your reply should list the labels following the order given in the request.
Response: c, b, a
(c: 1.88 µM, b: 1.27 µM, a: 0.75 µM)

* * *

Target: human Cav2.2 (Homo sapiens)
Assay: Assessment of calcium channel activity using FLIPR (Ca2+ influx in IMR32 cells)
Format: cell-based
Conditions: read-out: IC50 (μM) or percent inhibition (* indicates 3 minute incubation, otherwise 60 minute); IC50; 60 minute pre-incubation with compound; IMR32 cells, 80 mM KCl depolarization
Protocol: (i) In Vitro Methods—Assessment of Calcium Channel Activity Using FLIPR: The IMR32 cells were maintained in MEM media containing 10% (v/v) FBS, 1% (v/v) antibiotic/antimitotic, 1% (v/v) sodium pyruvate and 1% (v/v) MEM NEAA. […] To determine the IC50 values, the percent inhibition of the compound at each concentration was determined relative to the activity in the absence of inhibitor, and data was fitted using non-linear regression sigmoidal dose response curve analysis with GraphPad Prism®.
RECORDED ENDPOINT: IC50 (µM)

Consider the following illustrative entries.
1) O=C(CCC(c1ccc(F)cc1)c1ccc(F)cc1)N[C@H]1CC[C@H]2CN(Cc3cccc(C(F)(F)F)c3)C[C@H]21 (relative stereo)
1.15
2) CC(C)C(C(=O)N[C@H]1CC[C@@H]2CN(CCCc3cc(F)cc(Cl)c3)C[C@@H]21)c1ccccc1 (some centres unmarked)
2.81
3) CC(C)[C@@H](CC(=O)N[C@@H]1CC[C@H]2CN(S(=O)(=O)c3cccc(C(F)(F)F)c3)C[C@H]21)NC(=O)OC(C)(C)C
14.1
4) CCC[C@H](NC)C(=O)N[C@H]1CC[C@@H]2CN(Cc3cccc(C(F)(F)F)c3)C[C@@H]21
10.6
5) CC(C)C[C@@H](C(=O)N[C@H]1CC[C@H]2CN(Cc3cccc(C(F)(F)F)c3)C[C@H]21)N(C)S(C)(=O)=O
1.21

(1) CC(C)C(C(=O)N[C@H]1CC[C@@H]2CN(Cc3ccccc3)C[C@@H]21)c1ccc(Cl)cc1 (some centres unmarked)
(2) CC(C)C[C@@H](C(=O)N[C@@H]1CC[C@H]2CN(Cc3ccccc3)C[C@H]21)N(C)C(=O)OC(C)(C)C
Request: Parameter metric = IC50. Return the lower-valued option from 1 and 2 . Bench note: the answer is the label of the chosen record.
Response: 2
(2: 0.71 µM, 1: 1.49 µM)
